Let's look at some compounds and their measured pIC50.
assay target: Recombinant STAT3 protein (STAT3(G127-I722)) (Homo sapiens, UniProt P40763)
Construct: Recombinant STAT3 protein (STAT3(G127-I722))
Sequence (P40763 127-722): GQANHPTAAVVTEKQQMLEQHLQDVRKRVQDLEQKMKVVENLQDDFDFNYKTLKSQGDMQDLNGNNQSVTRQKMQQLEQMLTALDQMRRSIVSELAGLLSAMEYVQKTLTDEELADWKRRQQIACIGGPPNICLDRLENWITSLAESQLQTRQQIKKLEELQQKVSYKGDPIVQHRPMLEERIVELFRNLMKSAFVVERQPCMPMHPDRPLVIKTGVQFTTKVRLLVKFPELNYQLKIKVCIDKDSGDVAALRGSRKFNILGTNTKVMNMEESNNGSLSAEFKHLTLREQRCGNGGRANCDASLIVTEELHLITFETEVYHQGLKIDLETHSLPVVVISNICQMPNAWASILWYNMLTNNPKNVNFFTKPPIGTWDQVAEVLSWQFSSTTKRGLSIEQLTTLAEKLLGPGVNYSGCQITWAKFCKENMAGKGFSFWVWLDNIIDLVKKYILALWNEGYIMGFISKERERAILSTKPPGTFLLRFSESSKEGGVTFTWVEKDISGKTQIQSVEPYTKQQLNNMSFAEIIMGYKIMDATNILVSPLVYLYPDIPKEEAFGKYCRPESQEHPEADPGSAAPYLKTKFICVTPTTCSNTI
procedure summary: STAT3 Fluorescence Polarization (FP) Assay
setup conditions: 25 nM STAT3(G127-I722), 2 nM 5-FAM-GpYLPQTV-NH2 probe, pH 7.4, 45-minute incubation at room temperature
Description: An FP assay was developed to determine IC50 values for test substances. […] Reaction components were mixed, and FP was measured after 45-minute incubation at room temperature using a Tecan Spark multimode plate reader. FP signal (mP) was plotted against the log concentration of the test substances and IC50 values were calculated by nonlinear regression analysis using GraphPad Prism software. […]
pIC50: −log10 of the molar value.

{"columns": ["compound", "pIC50"],
 "data": [
  ["CN(CCOc1ccc(C2CCC(=O)NC2=O)cc1)c1ccncc1C1CN(C(=O)[C@@H]2CC[C@@H]3C[C@H]4C[C@H]4C[C@H](NC(=O)c4cc5cc(C(F)(F)P(=O)(O)O)ccc5s4)C(=O)N32)C1 (stereo partly shown)", "> 7.00"],
  ["O=C1CCC(n2c(=O)[nH]c3cc(N4CCC(n5ccc([C@@H]6CN(C(=O)[C@@H]7CC[C@@H]8C[C@H]9C[C@H]9C[C@H](NC(=O)c9cc%10cc(C(F)(F)P(=O)(O)O)ccc%10s9)C(=O)N87)C7(CC7)C6)cc5=O)CC4)ccc32)C(=O)N1 (stereo partly shown)", "6.00 to 7.00"],
  ["O=C1CCC(N2Cc3c(C#CCCCCCC(=O)NC4(c5ccccn5)CN(C(=O)[C@@H]5CC[C@@H]6C[C@H]7C[C@H]7C[C@H](NC(=O)c7cc8cc(C(F)(F)P(=O)(O)O)ccc8s7)C(=O)N65)C4)cccc3C2=O)C(=O)N1 (stereo partly shown)", "> 7.00"]
]}

Here is the next item to consider.
Q. Complete the entry with pIC50 for N#CC1CN(C(=O)C2CCC3CC4CC4CC(NC(=O)c4cc5cc(C(F)(F)P(=O)(O)O)ccc5s4)C(=O)N32)CC1c1cccc(N2CCN(c3ccc4c(c3)[nH]c(=O)n4C3CCC(=O)NC3=O)CC2)c1 (stereo not shown)
A. 6.00 to 7.00

---

Tested on: pSTAT3 (pY705-STAT3) in PBMC
procedure summary: MSD-pSTAT-PBMC Assay (pSTAT3)
Format: cell-based
setup conditions: compound 3 hrs, then 10 ng/mL IL-6 for 10 min
pIC50: −log10 of the molar value.
quantity kind: pIC50

Reference set (3 entries):
{"columns": ["compound", "test result"],
 "data": [
  ["CCCC(=O)SCCOP(=O)(OCCSC(=O)CCC)C(F)(F)c1ccc2sc(C(=O)NC3CC4CC4CC4CCC(C(=O)N5CC(NC(=O)CCCCCC#Cc6cccc7c6CN(C6CCC(=O)NC6=O)C7=O)(c6ccccn6)C5)N4C3=O)cc2c1 (stereo not drawn) [Compound 2]", "> 7.00"],
  ["O=C1CCC(c2ccc(OCC(=O)N3CCN(c4ccncc4C4CN(C(=O)[C@@H]5CC[C@@H]6C[C@H]7C[C@H]7C[C@H](NC(=O)c7cc8cc(C(F)(F)P(=O)(O)O)ccc8s7)C(=O)N65)C4)CC3)cc2)C(=O)N1 (stereo partly drawn) [Compound 21]", "< 5.52"],
  ["O=C1CCC(N2Cc3c(C#CCCCCCC(=O)NC4(c5ccccn5)CN(C(=O)[C@@H]5CC[C@@H]6C[C@H]7C[C@H]7C[C@H](NC(=O)c7cc8cc(C(F)(F)P(=O)(O)O)ccc8s7)C(=O)N65)C4)cccc3C2=O)C(=O)N1 (stereo partly drawn) [Compound 1]", "< 5.52"]
]}

Q. Complete the entry with pIC50 for CCCC(=O)SCCOP(=O)(OCCSC(=O)CCC)C(F)(F)c1ccc2sc(C(=O)N[C@H]3C[C@@H]4C[C@@H]4C[C@H]4CCC(C(=O)N5CC(c6cnccc6N6CCN(C(=O)COc7ccc(C8CCC(=O)NC8=O)cc7)CC6)C5)N4C3=O)cc2c1 (stereo partly drawn) [Compound 22]
A. > 7.00

Q. Complete the entry with pIC50 for CCCC(=O)SCCOP(=O)(OCCSC(=O)CCC)C(F)(F)c1ccc2sc(C(=O)NC3CC4CC4CC4CCC(C(=O)N5CC(c6cnccc6N(C)CCOc6ccc(C7CCC(=O)NC7=O)cc6)C5)N4C3=O)cc2c1 (stereo not drawn) [Compound 12]
A. > 7.00

Q. Complete the entry with pIC50 for CN(CCOc1ccc(C2CCC(=O)NC2=O)cc1)c1ccncc1C1CN(C(=O)[C@@H]2CC[C@@H]3C[C@H]4C[C@H]4C[C@H](NC(=O)c4cc5cc(C(F)(F)P(=O)(O)O)ccc5s4)C(=O)N32)C1 (stereo partly drawn) [Compound 11]
A. < 5.52

Ref: patent US20260308185A1
